Hello, the source for this data is ChEMBL document CHEMBL5137020, in case you need it.

Lab note: IC50 readings collected with UniProt P07711 for the following molecules.
Sequence (P07711 whole entry): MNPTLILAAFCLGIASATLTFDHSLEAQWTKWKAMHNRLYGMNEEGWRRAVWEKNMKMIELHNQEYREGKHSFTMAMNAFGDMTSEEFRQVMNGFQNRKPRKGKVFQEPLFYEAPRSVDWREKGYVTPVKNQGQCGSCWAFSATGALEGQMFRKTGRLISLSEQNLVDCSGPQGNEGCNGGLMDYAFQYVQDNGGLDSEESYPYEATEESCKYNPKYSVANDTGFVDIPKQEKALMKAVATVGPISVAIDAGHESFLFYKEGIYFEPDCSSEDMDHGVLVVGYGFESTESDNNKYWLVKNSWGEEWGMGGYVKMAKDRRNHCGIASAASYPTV

- SMILES STRUCTURE: "N#CC1(NC(=O)[C@@H]2C[C@@H](S(=O)(=O)c3ccccc3Cl)CN2C(=O)C2(c3ncc(Br)cc3F)CNC2)CC1"
  VALUE UNITS: "nM"
  IC50: 5
- SMILES STRUCTURE: "COc1ccc(S(=O)(=O)[C@@H]2C[C@@H](C(=O)NC3(C#N)CC3)N(C(=O)C3(c4ccc(Cl)cn4)CNC3)C2)c(Cl)c1"
  VALUE UNITS: "nM"
  IC50: 36

###

# SYSTEM TESTED: Cathepsin S (Homo sapiens)
# Sequence (P25774 whole entry): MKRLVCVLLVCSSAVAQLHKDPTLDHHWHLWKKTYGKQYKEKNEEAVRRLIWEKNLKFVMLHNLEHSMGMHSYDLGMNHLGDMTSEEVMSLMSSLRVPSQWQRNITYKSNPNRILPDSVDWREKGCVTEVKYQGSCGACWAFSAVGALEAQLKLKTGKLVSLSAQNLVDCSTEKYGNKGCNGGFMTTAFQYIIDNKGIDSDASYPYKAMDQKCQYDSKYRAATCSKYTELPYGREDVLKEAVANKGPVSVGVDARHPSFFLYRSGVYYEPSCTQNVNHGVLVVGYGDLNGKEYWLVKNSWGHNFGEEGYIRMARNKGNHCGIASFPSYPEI
# METHOD NOTES: Inhibition of Cathepsin S (unknown origin)
READOUT LABEL: IC50 (nM)

- SMILES STRUCTURE: "N#CC1(NC(=O)[C@@H]2C[C@@H](S(=O)(=O)c3ccccc3Cl)CN2C(=O)C2(c3ncc(Br)cc3F)CNC2)CC1"
  VALUE UNITS: "nM"
  MEAS VALUE: 1
